FYI, the data here is from patent US11358969B2.

protocolDescription: Mouse Pharmacokinetic Study (Example 1C)
Assay type: in vivo
appliedConditions: mouse; CD-1 mice, po, 30 mg/kg; plasma
observable: AUC(0-t) (ng·h/mL)

>>> print(df.to_string())
                                   molecule  observable  reading
0  CC(C)c1cnn2c(N[C@@H]3CCc4[nH]ccc4C3)nc(-c3cncc(F)c3)nc12 [I-137b]    AUC(0-t)     3630
1  N#Cc1cnn2c(N[C@@H]3CCc4[nH]c5ccccc5c4C3)nc(-c3cncc(F)c3)nc12    AUC(0-t)     6620
2  C[C@@H](O)c1cnn2c(N[C@@H]3CCc4[nH]c5ccccc5c4C3)cc(-c3cncc(F)c3)nc12 [I-198a]    AUC(0-t)     3960
3  CC(C)c1cnn2c(N[C@H]3CCc4[nH]ccc4C3)nc(-c3cncc(F)c3)nc12 [I-137a]    AUC(0-t)     3780
4  O=C(c1cnn2c(NCCc3c[nH]c4ccccc34)cc(-c3cncc(F)c3)nc12)N1CCOCC1    AUC(0-t)      370
5  CC(C)c1cnn2c(NCCc3c[nH]c4ccccc34)cc(-c3cncc(F)c3)nc12    AUC(0-t)      730
6  C[C@H](O)c1cnn2c(N[C@@H]3CCc4[nH]c5ccccc5c4C3)nc(-c3cncc(F)c3)nc12    AUC(0-t)      107
7  Cc1cnn2c(N[C@H]3CCc4[nH]ccc4C3)nc(-c3cncc(F)c3)nc12 [I-259a]    AUC(0-t)      237

====

protocolDescription: Mouse Pharmacokinetic Study (Example 1C)
Type: in vivo
appliedConditions: mouse; CD-1 mice, po, 30 mg/kg; plasma
Experimental: Formulations of compounds set forth in Table 4 were administered intravenously or orally via gavage to CD-1 mice. […] Internal standard was added to each sample prior to protein precipitation with acetonitrile. The precipitates were filtered through a Phree phospholipid removal filter plate and the samples were analyzed by LC/MS/MS. […] The pharmacokinetics of each compound were analyzed by Phoenix WinNonlin software (Pharsight, St. Louis, Mo.) via non-compartmental analysis.
observable: half-life (h)

>>> df
                                   molecule  reading
0  O=C(c1cnn2c(NCCc3c[nH]c4ccccc34)cc(-c3cncc(F)c3)nc12)N1CCOCC1      0.8
1  C[C@@H](O)c1cnn2c(NCCc3c[nH]c4ccccc34)cc(-c3cncc(F)c3)nc12 [I-222a]      1.7
2  CC(C)c1cnn2c(N[C@@H]3CCc4[nH]c5ccccc5c4C3)nc(-c3cncc(F)c3)nc12      8.8
3  CC(C)c1cnn2c(NCCc3c[nH]c4ccccc34)cc(-c3cncc(F)c3)nc12      3.9

====

protocolDescription: Mouse Pharmacokinetic Study (Example 1C)
Format: in vivo
appliedConditions: mouse; CD-1 mice, iv, 3 mg/kg; plasma
observable: log10 clearance (log10 of the value in mL/min/kg)

>>> print(df.to_string())
                                   compound  reading
0  C[C@@H](O)c1cnn2c(N[C@@H]3CCc4[nH]c5ccccc5c4C3)cc(-c3cncc(F)c3)nc12 [I-198a]     1.81
1  Cc1[nH]c2c(F)cc(F)cc2c1CCNc1cc(-c2cncc(F)c2)nc2c(C(C)C)cnn12 [I-107]     2.73
2  Cc1cnn2c(N[C@H]3CCc4[nH]ccc4C3)nc(-c3cncc(F)c3)nc12 [I-259a]     1.77
3  Fc1cncc(-c2nc(N[C@@H]3CCc4[nH]c5ccccc5c4C3)n3ncc(Br)c3n2)c1 [I-154]     1.22
4  CC(C)c1cnn2c(N[C@@H]3CCc4[nH]ccc4C3)nc(-c3cncc(F)c3)nc12 [I-137b]     1.57
5  Fc1cncc(-c2nc(N[C@@H]3CCc4[nH]c5ccccc5c4C3)c3ncccc3n2)c1 [I-126]     1.48
6  Fc1cncc(-c2cc(OC3CCCC3)nc(NCCc3c[nH]c4ccccc34)n2)c1 [I-59]     1.72
7  CN(C)c1cnn2c(N[C@H]3Cc4ccc(O)cc4C3)cc(-c3cncc(F)c3)nc12 [I-204b]     2.04
